Target: CREBBP (1084-1701) (Homo sapiens)
Construct: measured in the following biochemical assay using CREBBP (1084-1701); purchased
Sequence (Q92793 1084-1701): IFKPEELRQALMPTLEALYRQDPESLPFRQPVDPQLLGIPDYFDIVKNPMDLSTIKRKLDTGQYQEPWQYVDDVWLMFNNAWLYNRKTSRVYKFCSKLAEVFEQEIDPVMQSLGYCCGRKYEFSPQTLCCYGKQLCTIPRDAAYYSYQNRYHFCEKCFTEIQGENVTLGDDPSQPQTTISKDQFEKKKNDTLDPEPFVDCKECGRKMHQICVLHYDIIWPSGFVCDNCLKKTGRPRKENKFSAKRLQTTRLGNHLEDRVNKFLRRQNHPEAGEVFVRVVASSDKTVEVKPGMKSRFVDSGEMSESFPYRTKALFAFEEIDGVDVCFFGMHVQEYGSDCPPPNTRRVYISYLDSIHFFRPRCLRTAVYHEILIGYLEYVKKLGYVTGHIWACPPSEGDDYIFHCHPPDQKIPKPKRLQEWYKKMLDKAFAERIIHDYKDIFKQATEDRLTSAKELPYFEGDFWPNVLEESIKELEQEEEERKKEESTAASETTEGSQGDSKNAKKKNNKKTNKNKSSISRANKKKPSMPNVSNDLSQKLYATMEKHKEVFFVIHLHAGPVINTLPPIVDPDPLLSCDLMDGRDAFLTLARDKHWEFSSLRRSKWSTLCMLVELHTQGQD
Method summary: Biochemical assay for CREBBP (1084-1701), SAMDI
Condition notes: SAMDI, read-out: CREBBP Biochemistry IC50
Reported property: IC50 (nM)
Numbers only here, please. The scale is nM.

Completed entries (count: 5):
Molecule	Readout number
CCn1ncc(CN(C)C(=O)c2cc(-c3cc4c(N)n[nH]c4c(C)n3)nc3ccc(Cl)cc23)c1C	31.4
CCn1ncc(CN(C)C(=O)c2nc(-c3cc(C)cc(NC4CNC4)c3)nc3ccc(Cl)cc23)c1C	12.3
CCn1ncc(CN(C)C(=O)c2nc(-c3cc(C)cc(NC4CCOCC4)c3)nc3ccc(Cl)cc23)c1C	67
CCn1ncc(CN(C)C(=O)c2nc(-c3cc(C(F)(F)F)c4[nH]nc(NC)c4c3)nc3ccc(Cl)cc23)c1C	43.9
CCn1ncc(CN(C)C(=O)c2cc(-c3cccc(N)n3)nc3ccc(Cl)cc23)c1C	440

## Task Give its IC50 value. Item: CCn1ncc(CN(C)C(=O)c2nc(-c3cncn3C)nc3ccc(Cl)cc23)c1C [Compound 158]
## Result 14000

## Task Give its IC50 value. Item: CCn1ncc(CN(C)C(=O)c2nc(-c3cncn3C)nc3ccc(Cl)cc23)c1C [Compound 363]
## Result 9200

* * *

Tested on: H3K18Ac in HB-CLS-2 cells
Method summary: H3K18AC in-cell western (ICW) assay
Format: cell-based
Condition notes: H3K18Ac in-cell western; read-out: CREBBP ICW IC50
Reported property: IC50 (nM)
Numbers only here, please. The scale is nM.

Completed entries (count: 5):
Item smiles	Target	Reported property	Units of measure	Readout number
CCn1ncc(CN(C)C(=O)c2nc(-c3ccc(OCCNC)c(Cl)c3)nc3ccc(OC)cc23)c1C	H3K18Ac in HB-CLS-2 cells	IC50	nM	8900
CCn1ncc(CN(C)C(=O)c2nc(-c3ccc4[nH]nnc4c3)nc3ccc(Cl)cc23)c1C	H3K18Ac in HB-CLS-2 cells	IC50	nM	4900
CCn1ncc(CN(C)C(=O)c2nc(-c3cc(C#N)cc(NCCN(C)C(=O)OC(C)(C)C)c3)nc3ccc(Cl)cc23)c1C	H3K18Ac in HB-CLS-2 cells	IC50	nM	2400
CCn1ncc(CN(C)C(=O)c2nc(-c3ccc(OCCCNC)c(C)c3Cl)nc3ccc(Cl)cc23)c1C	H3K18Ac in HB-CLS-2 cells	IC50	nM	34
CCn1ncc(CN(C)C(=O)c2nc(-c3cc4c(N)n[nH]c4cc3C)nc3ccc(Br)cc23)c1C	H3K18Ac in HB-CLS-2 cells	IC50	nM	58.3

## Task Give its IC50 value. Item: CCn1ncc(CN(C)C(=O)c2nc(-c3cc(C(=O)NC)n(C)n3)nc3ccc(Cl)cc23)c1C
## Result 170

## Task Give its IC50 value. Item: CCn1ncc(CN(C)C(=O)c2nc(-c3cnc[nH]3)nc3ccc(Cl)cc23)c1C
## Result 2500

* * *

Target: CREBBP (1084-1701) (Homo sapiens)
Construct: measured in the following biochemical assay using CREBBP (1084-1701); purchased
Method summary: Biochemical assay for CREBBP (1084-1701), SAMDI
Condition notes: SAMDI, read-out: CREBBP Biochemistry IC50
Protocol: The following example describes materials and methods relating to a biochemical assay for CREBBP (1084-1701). IC50 values (micromolar (μM)) are summarized in Table 1, Table 2, and Table 3 under the column labeled: “CREBBP Biochemistry IC50 (micromolar).” […] METHODS: The effect of compounds was measured in the following biochemical assay using CREBBP (1084-1701). […] The SAMDI biochip was then read on the mass spectrometer.
Let's look at some compounds and their measured pIC50.
pIC50 field: float, defined as -log10 of concentration (mol/L).

Completed entries (count: 5):
Item smiles	Readout number
CCn1ncc(CN(C)C(=O)c2nc(-c3cc4c(N)noc4cc3C)nc3ccc(Cl)cc23)c1C	7.53
CCn1ncc(CN(C)C(=O)c2nc(-c3ccc(OCCCNC(=O)OC(C)(C)C)c(C)c3)nc3ccc(Cl)cc23)c1C	6.33
CCn1ncc(CN(C)C(=O)c2nc(-c3ccc(OCCNC(C)=O)c(Cl)c3)nc3ccc(Cl)cc23)c1C	7.36
CCn1ncc(CN(C)C(=O)c2nc(-c3cc(C)c4c(N)[nH]nc4c3)nc3ccc(Cl)cc23)c1C	7.86
CCc1ccc2nc(-c3cccc(Cl)c3)cc(C(=O)N(C)Cc3cnn(CC)c3C)c2c1	6.54

## Task Form entry - test system: CREBBP (1084-1701) (Homo sapiens); read-out: pIC50; compound: CCn1ncc(CN(C)C(=O)c2nc(-c3cc(C(=O)NC)n(C)n3)nc3ccc(COC)cc23)c1C
## Result 6.83

## Task Form entry - test system: CREBBP (1084-1701) (Homo sapiens); read-out: pIC50; compound: CCn1ncc(CN(C)C(=O)c2nc(-c3ccc4[nH]nnc4c3)nc3ccc(Cl)cc23)c1C
## Result 7.00

## Task Form entry - test system: CREBBP (1084-1701) (Homo sapiens); read-out: pIC50; compound: CCn1ncc(CN(C)C(=O)c2nc(-c3cccc(Cl)c3Cl)nc3ccc(Cl)cc23)c1C
## Result 8.59

## Task Form entry - test system: CREBBP (1084-1701) (Homo sapiens); read-out: pIC50; compound: CCn1ncc(CN(C)C(=O)c2nc(-c3ccc(OCCCNC)c(C4CC4)c3)nc3ccc(Cl)cc23)c1C
## Result 7.39

## Task Form entry - test system: CREBBP (1084-1701) (Homo sapiens); read-out: pIC50; compound: CCn1ncc(CN(C)C(=O)c2cc(-c3ccc[nH]3)nc3ccc(Cl)cc23)c1C
## Result 4.29

## Task Form entry - test system: CREBBP (1084-1701) (Homo sapiens); read-out: pIC50; compound: CCn1ncc(CN(C)C(=O)c2nc(-c3cc4c(NC(C)=O)n[nH]c4cc3C)nc3ccc(Cl)cc23)c1C
## Result 6.45

* * *

Target: EP300 (P300(1048-1664)) (Homo sapiens)
Construct: P300(1048-1664)
Sequence (Q09472 1048-1664): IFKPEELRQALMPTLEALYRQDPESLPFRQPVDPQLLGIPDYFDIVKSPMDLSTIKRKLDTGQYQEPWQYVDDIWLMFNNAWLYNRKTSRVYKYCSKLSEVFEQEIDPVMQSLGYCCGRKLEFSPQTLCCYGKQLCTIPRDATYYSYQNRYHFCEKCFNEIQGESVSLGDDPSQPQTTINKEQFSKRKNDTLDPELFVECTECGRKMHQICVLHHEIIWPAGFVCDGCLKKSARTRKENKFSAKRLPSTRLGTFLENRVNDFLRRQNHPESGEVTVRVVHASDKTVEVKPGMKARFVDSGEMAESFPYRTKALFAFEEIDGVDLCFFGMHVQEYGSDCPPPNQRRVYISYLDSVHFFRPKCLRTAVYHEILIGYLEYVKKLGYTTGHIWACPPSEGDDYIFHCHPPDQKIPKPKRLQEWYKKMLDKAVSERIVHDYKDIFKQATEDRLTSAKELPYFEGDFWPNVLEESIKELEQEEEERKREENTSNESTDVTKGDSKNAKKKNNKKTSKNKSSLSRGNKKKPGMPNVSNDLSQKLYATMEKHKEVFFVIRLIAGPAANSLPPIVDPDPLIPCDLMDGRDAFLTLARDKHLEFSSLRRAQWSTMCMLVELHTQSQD
Method summary: Biochemical assay for EP300, SAMDI
Condition notes: EP300, SAMDI; read-out: EP300 Biochemistry IC50
Reported property: IC50 (nM)
Numbers only here, please. The scale is nM.

Completed entries (count: 5):
Compound	IC50 / nM
CCc1nc(-c2cc(C(=O)N(C)Cc3cnc(CC)n3C)c3cc(COC)ccc3n2)ccc1NCCN(C)C [Compound 580]	43.9
CCn1ncc(CN(C)C(=O)c2nc(-n3cc4c(n3)CNCC4)nc3ccc(Cl)cc23)c1C [Compound 179]	55000
CCn1ncc(CN(C)C(=O)c2nc(-c3ccc4[nH]nnc4c3)nc3ccc(Cl)cc23)c1C [Compound 133]	470
CCn1ncc(CN(C)C(=O)c2cc(-c3cc4[nH]cnc4cn3)nc3ccc(Cl)cc23)c1C [Compound 400]	13
CCn1ncc(CN(C)C(=O)c2cc(-c3cc4[nH]cnc4c(C)n3)nc3ccc(COC)cc23)c1C [Compound 530]	12.5

## Task Give its IC50 value. Item: CCn1ncc(CN(C)C(=O)c2nc(N3CCc4[nH]cnc4C3)nc3ccc(Cl)cc23)c1C [Compound 167]
## Result 8000

## Task Give its IC50 value. Item: CCn1ncc(CN(C)C(=O)c2cc(-c3ccc(NCCN(C)C)c(OC)c3)nc3ccc(Cl)cc23)c1C [Compound 585]
## Result 903

## Task Give its IC50 value. Item: CCn1ncc(CN(C)C(=O)c2cc(-c3ccc(N(C)CCN)nn3)nc3ccc(Cl)cc23)c1C [Compound 505]
## Result 3280

## Task Give its IC50 value. Item: CCn1ncc(CN(C)C(=O)c2cc(-c3ccc(N4CC(N(C)C)C4)c(C)n3)nc3ccc(Cl)cc23)c1C [Compound 497]
## Result 661

## Task Give its IC50 value. Item: CCn1ncc(CN(C)C(=O)c2nc(-c3ccc(OCCNC)cc3Cl)nc3ccc(Cl)cc23)c1C [Compound 23]
## Result 50

## Task Give its IC50 value. Item: CCn1ncc(CN(C)C(=O)c2nc(-c3cc4c(N)[nH]nc4cc3C)nc3ccc(COC)cc23)c1C [Compound 508]
## Result 22.4

## Task Give its IC50 value. Item: CCn1ncc(CN(C)C(=O)c2nc(-c3ccc(OCCO)cc3Cl)nc3ccc(Cl)cc23)c1C [Compound 32]
## Result 330

## Task Give its IC50 value. Item: CCn1ncc(CN(C)C(=O)c2nc(-c3cc(Cl)cc(CNC)c3)nc3ccc(Cl)cc23)c1C [Compound 82]
## Result 460

## Task Give its IC50 value. Item: CCn1ncc(CN(C)C(=O)c2cc(-n3ncc4c3CNCC4)nc3ccc(Cl)cc23)c1C [Compound 186]
## Result 64000

## Task Give its IC50 value. Item: CCc1nn(C)c(CN(C)C(=O)c2cc(-c3ccc(NCCN(C)C)c(C)n3)nc3ccc(Cl)cc23)c1C [Compound 587]
## Result 17300

## Task Give its IC50 value. Item: CCn1ncc(CN(C)C(=O)c2nc(N3CCn4cc(C)nc4C3)nc3ccc(Cl)cc23)c1C [Compound 220]
## Result 100000

## Task Give its IC50 value. Item: CCn1ncc(CN(C)C(=O)c2nc(-c3cccc(Cl)c3)nc3c(CNC)cc(Cl)cc23)c1C [Compound 85]
## Result 400

## Task Give its IC50 value. Item: CCn1ncc(CN(C)C(=O)c2nc(-c3cc(C)nc(NCCN(C)C)c3)nc3ccc(Cl)cc23)c1C [Compound 469]
## Result 10.9

## Task Give its IC50 value. Item: CCn1ncc(CN(C)C(=O)c2nc(-c3cc(C)c4nc[nH]c4c3)nc3ccc(COC)cc23)c1C [Compound 439]
## Result 628

## Task Give its IC50 value. Item: CCn1ncc(CN(C)C(=O)c2nc(-c3ccc4cc[nH]c4c3)nc3ccc(Cl)cc23)c1C [Compound 67]
## Result 250

## Task Give its IC50 value. Item: CCn1ncc(CN(C)C(=O)c2nc(-n3cc(C)cn3)nc3ccc(Cl)cc23)c1C [Compound 182]
## Result 19000

## Task Give its IC50 value. Item: CCCOc1ccc(-c2nc(C(=O)N(C)Cc3cnn(CC)c3C)c3cc(Cl)ccc3n2)cc1Cl [Compound 157]
## Result 2800

## Task Give its IC50 value. Item: CCn1ncc(CN(C)C(=O)c2nc(-c3ccccc3Cl)nc3c(C#N)cccc23)c1C [Compound 211]
## Result 17000

## Task Give its IC50 value. Item: CCn1ncc(CN(C)C(=O)c2nc(-c3cn(C)cn3)nc3ccc(Cl)cc23)c1C [Compound 170]
## Result 13000

## Task Give its IC50 value. Item: CCn1nc(C)c(CN(C)C(=O)c2cc(-c3ccc(NCCNC)c(C)n3)nc3ccc(Cl)cc23)c1C [Compound 557]
## Result 5200

## Task Give its IC50 value. Item: CCn1ncc(CN(C)C(=O)c2nc(-c3cc(NC(=O)CNC)cc(OC)c3)nc3ccc(Cl)cc23)c1C [Compound 384]
## Result 12

## Task Give its IC50 value. Item: CCn1ncc([C@@H](C)N(C)C(=O)c2cc(-c3ccc(NCCNC)c(C)n3)nc3ccc(Cl)cc23)c1C [Compound 608]
## Result 26.4

## Task Give its IC50 value. Item: CCc1ncc(CN(C)C(=O)c2cc(-c3ccc(N(C)C4CN(C)C4)c(C)n3)nc3ccc(Cl)cc23)n1C [Compound 572]
## Result 23.3

## Task Give its IC50 value. Item: CCn1ncc(CN(C)C(=O)c2nc(-c3cc(C)nc(N)c3)nc3ccc(Cl)cc23)c1C [Compound 28]
## Result 92

## Task Give its IC50 value. Item: CCn1ncc(CN(C)C(=O)c2nc(-c3ccc(OCCCNC)c(C)c3Cl)nc3ccc(Cl)cc23)c1C [Compound 2]
## Result 5

This collection of values is drawn from patent US20220144812A1.
